As shown below, each of these compounds has a reported IC50 value.
Test system: HUVEC
assay-method-text: Inhibition of VEGF-A induced HUVEC cell sprouting after 24 hrs by angiogenesis assay
Assay type: functional, cell-based
assay-context: Homo sapiens
quantity-kind: IC50 (nM)

>>> endpoint_value("Cc1c(O)c(O)cc2oc3cc(O)cc(O)c3c(=O)c12")
1800
>>> endpoint_value("CCN(CC)CCNC(=O)c1c(C)[nH]c(/C=C2\\C(=O)Nc3ccc(F)cc32)c1C")
120
>>> endpoint_value("C=C[C@]1(C)C=C2[C@@H](O)[C@@H]3OC(=O)[C@@]4(C)CC[C@H]5C[C@]5([C@@H]34)[C@@]2(O)C(=O)C1")
2600
>>> endpoint_value("C=C[C@@]1(C)C=C2C(=O)C(O)=C3[C@](C)(C(=O)O)CC[C@@H]4C[C@]34[C@]2(O)C(=O)C1")
3700
